ASSAY METHOD TEXT: NCI Yeast Anticancer Drug Screen. Data for the CLN2oe strain (AID 163);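 note: 0% = growth of vehicle-only control cultures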
CONDITION NOTES: S. cerevisiae CLN2oe strain, at 100.0 µM
Compounds without any hit were thinned out: in the full panel of roughly 79,000, 15% have a hit. Active and inactive are the calls of the source. Cut-off read from the data, not from the text of the source: active = growth inhibition above about 70%; inactive = the rest.
Outcomes: active, inactive

COMPOUND	LABEL
O=C1OC2C(O1)C1(Cl)C(Cl)=C(Cl)C2(Cl)C1(Cl)Cl (configuration not stated)	inactive
CC1CCC2(NC1)OC1CC3C4CCC5CC(OC6OC(CO)C(OC7OC(CO)C(O)C(OC8OCC(O)C(O)C8O)C7OC7OC(CO)C(O)C(O)C7O)C(O)C6O)CCC5(C)C4CCC3(C)C1C2C (configuration not stated)	inactive
Cc1c([N+](=O)[O-])oc2ccc3ccccc3c12	inactive
CNC(=O)ON(C(C)=O)C(=O)NC	inactive
O=C(O)C1C2CCC(C2)C1c1ccccc1 (configuration not stated)	inactive
COc1cc([C@@H]2c3cc4c(cc3C[C@@H]3COC(=O)C32)OCO4)cc(OC)c1O (some centres not stated)	inactive
CSC(=Nc1ccccc1)N(c1ccccc1)c1nc(=[N+](C)C)ss1	active

---

Recorded growth inhibition for the following molecules
ASSAY METHOD TEXT: NCI Yeast Anticancer Drug Screen. Data for the bub3 strain (AID 167)
CONDITION NOTES: S. cerevisiae bub3 mutant strain, at 50.0 µM (retest, dose inferred, filed as 5.0), active compounds read high
About 79,000 compounds went through this panel and 15% of them were active in at least one assay; those are over-represented in the sample as a whole. *1 amine or outer side, *2 acyl side, *3 side chain or, on linkers, in order; H or OH if unused. Where a SMILES comes first, the peptide text is derived from it. [ ]: non-standard residue; d: D form. X2 = CC[C@H](C)[C@H](OC(=O)[C@@H](C)[C@@H](CC)N[*:1])C(=O)[*:2]; X3 = C[C@H](N[*:1])C(=O)C(C)(C)C(=O)[*:2]; NMeY = CN[C@@H](Cc1ccc(O)cc1)C(=O)O; NMeL = CN[C@@H](CC(C)C)C(=O)O; NMeV = CN[C@H](C(=O)O)C(C)C

MOLECULE	RESULT UNITS	growth inhibition
COC(=O)C(F)C(Br)C(=O)OC (configuration not stated)	%	-21
CCC1(OC(=O)CN)C(=O)OCc2c1cc1n(c2=O)Cc2cc3ccccc3nc2-1 (configuration not stated)	%	94
Nc1ncc(CCCCc2ccc(NC(=O)Nc3ccc(S(=O)(=O)F)cc3)cc2)c(N)n1	%	48
Cc1cc(C)c(O)c(C)c1.[Hg]	%	99
CCCCCCCCCCCC[As](=O)(O)O	%	53
CCC(C)(C)c1ccc(OP(=S)(S)Oc2ccc(C(C)(C)CC)cc2)cc1	%	94
Cn1cnc(C(=N)[Se])c1N	%	94
CS(=O)(=O)OCCN(CCOS(C)(=O)=O)c1ccc(C=O)cc1	%	37
Oc1c(Cl)c(Cl)c(Cl)c(Cl)c1Cl (tested in a mixture with another compound)	%	99
O=P(Nc1ccccc1)(Oc1ccccc1)N1CCN(c2ccccc2)CC1 (configuration not stated)	%	96
CCN(CC)CCBr	%	-7
CC(C)(C)OOC(=O)c1ccccc1	%	99
BrCc1ccc2ncccc2c1	%	99
Cc1nc2ccccc2cc1C[N+]12CN3CN(CN(C3)C1)C2	%	2
CCOC(=O)N(C(=O)c1ccc([As]=O)cc1)C(=O)c1ccc([As]=O)cc1 (configuration not stated)	%	99
CC[C@H](C)[C@@H]1OC(=O)[C@@H](C)[C@@H](CC)NC(=O)[C@H](C)NC(=O)C(C)(C)C(=O)[C@H](C)NC(=O)[C@H](Cc2ccc(OC)cc2)N(C)C(=O)[C@H](C(C)C)N(C)C(=O)CNC(=O)[C@H](CC(C)C)N(C)C(=O)CNC1=O (cyclo(A[X2]G[NMeL]G[NMeV][NMeY](Me)[X3]))	%	98
CCCCN(CCCC)CC(C(C)=O)C(c1ccccc1)c1c(O)c2ccccc2oc1=O (configuration not stated)	%	4
O=[N+]([O-])c1ccc2c[n+]3ccccc3cc2c1	%	56
COc1cc(C=Nc2cc[c]([Hg][O]C(C)=O)cc2)ccc1O	%	75
O=C1C=C(Cl)C(=O)C=C1Cl	%	99
CNCC(O)c1cn(C)c2ccccc12 (configuration not stated)	%	0
CC1CCOC(=O)/C=C/C=C/C(=O)OC2CC3OC4C5OC5(C)C(O)CC4(COC(=O)C1O)C2(C)C31CO1 (configuration not stated)	%	95

---

ASSAY METHOD TEXT: NCI Yeast Anticancer Drug Screen. Data for the wt1 strain (AID 149);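 note: 0% = growth of vehicle-treated wt1 cultures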
CONDITION NOTES: S. cerevisiae wt1 strain (SPY 50644) growth inhibition; at 1.2 µM; active compounds read high
About 79,000 compounds went through this panel and 15% of them were active in at least one assay; those are over-represented in the sample as a whole.

COMPOUND	growth inhibition [%]
COC(=O)c1c(C)ccc2c(O)c3c(cc12)C(=O)c1c2c(cc(O)c1C3=O)C1(C)OC(C)(O2)C(O)C(N(C)C)C1O (stereo unspecified)	5
Oc1cccc2nc3ccccc3nc12	-55
CC(Cc1ccccc1)N(C)Cc1nc(C2CCC([N+](=O)[O-])O2)no1 (stereo unspecified)	-1
COC(=O)C1=C(C(=O)OC)SC2(S1)C(C(=O)OC)=C(C(=O)OC)Sc1c2ssc1=O	27
Br[Se]c1ccccn1	2
CCN(CCCl)CCCCNc1c2ccccc2nc2ccc(OC)cc12	3

---

ASSAY METHOD TEXT: NCI Yeast Anticancer Drug Screen. Data for the rad50 strain (AID 155);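 note: 0% = growth of vehicle-only cultures of the same strain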
CONDITION NOTES: S. cerevisiae rad50 strain growth inhibition; at 50.0 µM (retest, dose inferred, filed as 5.0)
About 79,000 compounds went through this panel and 15% of them were active in at least one assay; those are over-represented in the sample as a whole. Calls of active or inactive are those of the source. Rule as the data show it: active = growth inhibition above about 70%; inactive = the rest.
Outcomes: active, inactive

MOLECULE	LABEL
Nc1ccc2cc(Br)ccc2c1	inactive
O=S(=O)([O-])[O-].[OH3+].[OH3+].[OH3+].[Ru+2].c1ccccc1	inactive
N#Cc1cc(N(CCCl)CCCl)c([N+](=O)[O-])cc1[N+](=O)[O-]	inactive
N#C[SH2+].N#C[SH2+].N#C[SH2+].N#C[SH2+].[Cu+2].c1ccc(C[P+](c2ccccc2)(c2ccccc2)c2ccccc2)cc1	active
CC(Cc1ccccc1)N(C)Cc1ccc(-c2ccccc2)o1 (configuration not stated)	active
[Cl][Hg][CH2]CC1CC=CCC1 (configuration not stated)	active
CN(/N=C/c1ccc(Cl)cc1)P(=O)(N1CC1)N1CC1	inactive
COc1ccc(-c2c(C)c(C(=O)O)nc(-c3ccc4c(O)c(OC)c5c(c4n3)=NC(C)(C)N=5)c2N)c(O)c1OC	active
c1ccc(CCNCc2ccccc2)cc1	inactive
CCC(=O)C(CCN1CCC2(CCCc3ccccc32)CC1)(c1ccccc1)c1ccccc1	active
[Ni+2].[SH2+]C([SH2+])=Nc1ccccc1.[SH2+]C([SH2+])=Nc1ccccc1.c1ccc(C[P+](c2ccccc2)(c2ccccc2)c2ccccc2)cc1	active
ClCc1nc2ccccc2[nH]1	active
[Se]c1ncnc2nc[nH]c12	inactive
O=[N+]([O-])C(Br)(Br)CCC(Br)(Br)[N+](=O)[O-]	active
O=C(CI)NCc1ccccc1	active
Cc1nc2c(Br)cc(Br)cc2c(=O)n1-c1ccccc1N	inactive
Cc1cccc(NC(=O)CBr)c1	active
O=P(c1ccccc1)(c1ccccc1)c1ccccc1.O=P(c1ccccc1)(c1ccccc1)c1ccccc1.S=C=[N][Sn]([N]=C=S)([N]=C=S)[c]1ccccc1	active
O=C(O)CCCOc1cc(Cl)c(Cl)cc1Cl	active
c1ccc2c(NCCCCCCNc3c4ccccc4nc4ccccc34)c3ccccc3nc2c1	active
Oc1c(Cl)c(Cl)c(Cl)c(Cl)c1Cl.[Cu+2]	active
CCNc1ncc2ccccc2c1-c1ccc(N2CCN(CCCl)CC2)cc1	active

---

ASSAY METHOD TEXT: NCI Yeast Anticancer Drug Screen. Data for the cln2 rad14 strain (AID 165);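 note: 0% = growth equal to vehicle treated cultures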
CONDITION NOTES: S. cerevisiae cln2 rad14 strain, at 5.0 µM (retest, dose inferred, filed as 0.5)
Compounds without any hit were thinned out: in the full panel of roughly 79,000, 15% have a hit. Active and inactive are the calls of the source. Cut-off read from the data, not from the text of the source: active = growth inhibition above about 70%; inactive = the rest.
Outcomes: 1.0 for active, 0.0 for inactive

COMPOUND	LABEL
Cn1cc(/C=C/[N+](=O)[O-])c2ccccc21	0.0
CC(=O)Oc1ccc(N=C2C=C(Cl)C(=O)C(Cl)=C2)cc1	0.0
O=C(O)C1(c2ccccc2)OC1c1ccccc1 (stereo not given)	0.0
CCN(CCCl)c1ccc(/C=C/C2=[N+](C)c3ccccc3C2(C)C)c(C)c1	0.0
CC(Cl)CNC(C)C (stereo not given)	0.0
Oc1c(-c2ccccc2)cc(-[n+]2c(-c3ccccc3)cc(-c3ccccc3)cc2-c2ccccc2)cc1-c1ccccc1	1.0
CC12CCC(C1)C(C)(C)C2OC(=O)c1ccccc1N (stereo not given)	0.0
C1CC[CH]([Sn]([CH]2CCCCC2)[CH]2CCCCC2)CC1.C1CC[CH]([Sn]([CH]2CCCCC2)[CH]2CCCCC2)CC1	0.0
OC(c1cc2c(c3ccccc13)CCCC2)C1CCCCN1 (stereo not given)	0.0
COc1ccc(CC2C(=O)NC(C)C(=O)N(C)C3C(=O)N(C)C(Cc4ccc(O)c(c4)Oc4ccc(cc4)C3O)C(=O)NC(C)C(=O)NC(C)C(=O)N2C)cc1 (stereo not given)	0.0
